system: E. coli 1956
What MIC was measured for each of the following?
One number for each entry, in µg/mL.

Here's what some known entries look like.
MOLECULE	ASSAY TARGET	MIC (µg/mL)
CC(C)OC(=O)CCC(C)C1CCC2C3C(O)CC4CC(NCCCNCCCNCCCN)CCC4(C)C3CCC12C (stereo not shown)	E. coli 1956	10
CC(C)OC(=O)CCC(C)C1CCC2C3CCC4CC(NCCCNCCCCN)CCC4(C)C3CC(O)C12C (stereo not shown)	E. coli 1956	14
COC(=O)CCC(C)C1CCC2C3CCC4CC(NCCCNCCCN)CCC4(C)C3CCC12C (stereo not shown)	E. coli 1956	3

# context switch: different molecule, same MIC
Given item COC(=O)CCC(C)C1CCC2C3CCC4CC(NCCNCCNCCNCCNCN)CCC4(C)C3CC(O)C12C (stereo not shown) , the value recorded as its MIC is 14

---

test system: P. aeruginosa ATCC 27853; assay: MIC, broth microdilution; assay type: cell-based, Pseudomonas aeruginosa; conditions: Pseudomonas aeruginosa, ATCC27853, 24 h, ATCC strain
QUANTITY KIND: MIC (µg/mL)
Give bare numbers, in µg/mL.

Here's what some known entries look like.
MOLECULE	MIC / µg/mL
COC(=O)CCC(C)C1CCC2C3CCC4CC(NCCCN5CCN(CCCN)CC5)CCC4(C)C3CC(O)C12C (stereo not shown) [Claramine A18]	15
CC(C)OC(=O)CCC(C)C1CCC2C3CCC4CC(NCCCNCCCCNCCCN)CCC4(C)C3CC(O)C12C (stereo not shown) [Claramine A01, 3-Spermino Isopropyl Deoxycholate]	8
CCOC(=O)CCC(C)C1CCC2C3C(O)CC4CC(NCCCNCCCCNCCCN)CCC4(C)C3CCC12C (stereo not shown) [Claramine C21]	15
COC(=O)CCC(C)C1CCC2C3C(O)CC4CC(NCCCN5CCN(CCCN)CC5)CCC4(C)C3CC(O)C12C (stereo not shown) [Claramine B07]	30
COC(=O)CCC(C)C1CCC2C3CCC4CC(NCCCNCCCN)CCC4(C)C3CC(O)C12C (stereo not shown) [Claramine A08]	3

Take each entry in turn and give its MIC.
1. CC(C)OC(=O)CCC(C)C1CCC2C3C(O)CC4CC(NCCCNCCCCNCCCN)CCC4(C)C3CC(O)C12C (stereo not shown) [Claramine B12]
2. CC(C)OC(=O)CCC(C)C1CCC2C3CCC4CC(NCCCNCCCNCCCN)CCC4(C)C3CCC12C (stereo not shown) [Claramine E02]

Marked response:
1: 16; 2: 28

---

What MIC was measured for each of the following?
test system: S. aureus 340 and P. aeruginosa 1051575; assay: MIC against S. aureus and P. aeruginosa strains (Figure 6); type: cell-based; conditions: range over both strains, C-24 methyl ester series

Here's what some known entries look like.
MOLECULE	ASSAY TARGET	MIC
COC(=O)CCC(C)C1CCC2C3CCC4CC(NCCCNCCCNCCCN)CCC4(C)C3CC(O)C12C (stereo not drawn)	S. aureus 340 and P. aeruginosa 1051575	2 to 4 µg/mL
COC(=O)CCC(C)C1CCC2C3CCC4CC(NCCCNCCCCNCCCN)CCC4(C)C3CC(O)C12C (stereo not drawn)	S. aureus 340 and P. aeruginosa 1051575	2 to 4 µg/mL
COC(=O)CCC(C)C1CCC2C3CCC4CC(NCCCCN)CCC4(C)C3CC(O)C12C (stereo not drawn)	S. aureus 340 and P. aeruginosa 1051575	6 to 50 µg/mL
COC(=O)CCC(C)C1CCC2C3CCC4CC(NCCCCCN)CCC4(C)C3CC(O)C12C (stereo not drawn)	S. aureus 340 and P. aeruginosa 1051575	6 to 50 µg/mL
COC(=O)CCC(C)C1CCC2C3CCC4CC(NCCCN(C)CCCN)CCC4(C)C3CC(O)C12C (stereo not drawn)	S. aureus 340 and P. aeruginosa 1051575	7 to 14 µg/mL

# context switch: different molecule, same MIC
Given item COC(=O)CCC(C)C1CCC2C3CCC4CC(NCCCN(CCCN)CCCN)CCC4(C)C3CC(O)C12C (stereo not drawn) , the value recorded as its MIC is 7 to 14 µg/mL

---

system: Chinese hamster Ovary cells (CHO-K1); assay: Cytotoxicity assay (WST-1 / Neutral Red); format: cell-based; details: Cricetulus griseus, 24 h, 24-h incubation
What IC50 was measured for each of the following?
One number for each entry, in µg/mL.

Take each entry in turn and give its IC50.
1. CC(C)OC(=O)CCC(C)C1CCC2C3CCC4CC(NCCCNCCCCN)CCC4(C)C3CC(O)C12C (stereo not shown)
2. CC(C)OC(=O)CCC(C)C1CCC2C3CCC4CC(NCCCNCCCN)CCC4(C)C3CCC12C (stereo not shown)
3. CC(C)OC(=O)CCC(C)C1CCC2C3CCC4CC(NCCN(CCN)CCN)CCC4(C)C3CCC12C (stereo not shown)
4. CC(C)OC(=O)CCC(C)C1CCC2C3CCC4CC(NCCCNCCCNCCCN)CCC4(C)C3CC(O)C12C (stereo not shown)
5. CC(C)OC(=O)CCC(C)C1CCC2C3CCC4CC(NCCCNCCCCNCCCN)CCC4(C)C3CCC12C (stereo not shown)
6. CC(CCC(=O)OC(C(F)(F)F)C(F)(F)F)C1CCC2C3CCC4CC(NCCCNCCCCNCCCN)CCC4(C)C3CC(O)C12C (stereo not shown)

Marked response:
73
13
107
51
24
4

---

tested on: E. coli 1956
Binary call on MIC with cut-off 10 µg/mL: strictly below means MET, and equality or higher means NOT MET.

COMPOUND	CLASSIFICATION
CC(C)OC(=O)CCC(C)C1CCC2C3C(O)CC4CC(NCCN(CCN)CCN)CCC4(C)C3CCC12C (stereo not drawn) [Claramine D10]	NOT MET
CC(C)OC(=O)CCC(C)C1CCC2C3C(O)CC4CC(NCCCN5CCN(CCCN)CC5)CCC4(C)C3CCC12C (stereo not drawn) [Claramine C24]	NOT MET
COC(=O)CCC(C)C1CCC2C3C(O)CC4CC(NCCCNCCCCNCCCN)CCC4(C)C3CCC12C (stereo not drawn) [Claramine C01]	NOT MET
CC(C)OC(=O)CCC(C)C1CCC2C3CCC4CC(NCCCNCCCCN)CCC4(C)C3CCC12C (stereo not drawn) [Claramine E03]	NOT MET
CCOC(=O)CCC(C)C1CCC2C3C(O)CC4CC(NCCCNCCCCNCCCN)CCC4(C)C3CCC12C (stereo not drawn) [Claramine C21]	NOT MET
CC(C)OC(=O)CCC(C)C1CCC2C3CCC4CC(NCCCNCCCCNCCCN)CCC4(C)C3CCC12C (stereo not drawn) [Claramine E01]	MET
CC(C)OC(=O)CCC(C)C1CCC2C3C(O)CC4CC(NCCCNCCCN)CCC4(C)C3CCC12C (stereo not drawn) [Claramine C19]	NOT MET
CC(C)OC(=O)CCC(C)C1CCC2C3CCC4CC(NCCCNCCCNCCCN)CCC4(C)C3CCC12C (stereo not drawn) [Claramine E02]	MET

Exam item: Item COC(=O)CCC(C)C1CCC2C3CCC4CC(NCCCNCCCN)CCC4(C)C3CC(O)C12C (stereo not drawn) [Claramine A08] : MIC beneath 10 µg/mL, strictly?
Marked response: NOT MET

---

test system: Chinese hamster Ovary cells (CHO-K1); test: Cytotoxicity assay (WST-1 / Neutral Red); assay type: cell-based; settings: Cricetulus griseus, 24 h, 24-h incubation
What IC50 was measured for each of the following?

Here's what some known entries look like.
COMPOUND	ASSAY TARGET	IC50
COC(=O)CCC(C)C1CCC2C3C(O)CC4CC(NCCCNCCCN)CCC4(C)C3CCC12C (stereo not shown) [Claramine C04]	Chinese hamster Ovary cells (CHO-K1)	68 µg/mL
COC(=O)CCC(C)C1CCC2C3CCC4CC(NCCCNCCCN)CCC4(C)C3CCC12C (stereo not shown) [Claramine E09]	Chinese hamster Ovary cells (CHO-K1)	> 60 µg/mL
COC(=O)CCC(C)C1CCC2C3C(O)CC4CC(NCCCCCCN)CCC4(C)C3CC(O)C12C (stereo not shown) [Claramine B06]	Chinese hamster Ovary cells (CHO-K1)	> 60 µg/mL

Given item CC(C)OC(=O)CCC(C)C1CCC2C3C(O)CC4CC(NCCCNCCCNCCCN)CCC4(C)C3CCC12C (stereo not shown) [Claramine C17] , the value recorded as its IC50 is > 60 µg/mL

---

tested on: P. aeruginosa 1051575; experiment: MIC, broth microdilution; format: cell-based, Pseudomonas aeruginosa; conditions: Pseudomonas aeruginosa, 1051575, 24 h, 24 h
What MIC was measured for each of the following?
Numbers only, in µg/mL.

Here's what some known entries look like.
MOLECULE	ASSAY TARGET	MIC (µg/mL)
CC(C)OC(=O)CCC(C)C1CCC2C3C(O)CC4CC(NCCCNCCCCNCCCN)CCC4(C)C3CC(O)C12C (stereo not drawn)	P. aeruginosa 1051575	8
COC(=O)CCC(C)C1CCC2C3C(O)CC4CC(NCCCNCCCNCCCN)CCC4(C)C3CCC12C (stereo not drawn)	P. aeruginosa 1051575	7
COC(=O)CCC(C)C1CCC2C3C(O)CC4CC(NCCCN5CCN(CCCN)CC5)CCC4(C)C3CC(O)C12C (stereo not drawn)	P. aeruginosa 1051575	15
CC(C)OC(=O)CCC(C)C1CCC2C3CCC4CC(NCCCNCCCCNCCCN)CCC4(C)C3CCC12C (stereo not drawn)	P. aeruginosa 1051575	8
CC(C)OC(=O)CCC(C)C1CCC2C3C(O)CC4CC(NCCN(CCN)CCN)CCC4(C)C3CCC12C (stereo not drawn)	P. aeruginosa 1051575	28

Take each entry in turn and give its MIC.
1. COC(=O)CCC(C)C1CCC2C3CCC4CC(NCCNCCNCCNCCNCN)CCC4(C)C3CC(O)C12C (stereo not drawn)
2. CC(C)OC(=O)CCC(C)C1CCC2C3C(O)CC4CC(NCCCN5CCN(CCCN)CC5)CCC4(C)C3CC(O)C12C (stereo not drawn)
3. COC(=O)CCC(C)C1CCC2C3C(O)CC4CC(NCCCNCCCCNCCCN)CCC4(C)C3CCC12C (stereo not drawn)
4. CC(C)OC(=O)CCC(C)C1CCC2C3CCC4CC(NCCCN5CCN(CCCN)CC5)CCC4(C)C3CC(O)C12C (stereo not drawn)
5. CC(C)OC(=O)CCC(C)C1CCC2C3C(O)CC4CC(NCCCNCCCCN)CCC4(C)C3CC(O)C12C (stereo not drawn)

Marked response:
[8, 16, 7, 62, 7]

Take each entry in turn and give its MIC.
1. CC(C)OC(=O)CCC(C)C1CCC2C3CCC4CC(NCCCNCCCNCCCN)CCC4(C)C3CCC12C (stereo not drawn)
2. COC(=O)CCC(C)C1CCC2C3C(O)CC4CC(NCCCNCCCN)CCC4(C)C3CCC12C (stereo not drawn)

Marked response:
2
26
